The following compounds are listed with their measured Z score values.
Test system: murine neural precursor cells (neurosphere cultures)
experiment-notes: HTS of LOPAC library against secondary neurosphere cultures, MTT proliferation assay at 3 μM, day 7 (z score, P value)
Assay type: cell-based, mouse
Counter-ions that a name gives are not always drawn.
# answer = number (no unit)

Ask: Field: Z score (murine neural precursor cells (neurosphere cultures)). Entry: C[C@@H]1O[C@H](C[N+](C)(C)C)CS1.[I-] [OXA-22 iodide]
Reply: −1.666

Ask: Field: Z score (murine neural precursor cells (neurosphere cultures)). Entry: Brc1c(NC2=NCCN2)ccc2nccnc12
Reply: −0.210

Ask: Field: Z score (murine neural precursor cells (neurosphere cultures)). Entry: CCCn1c(=O)c2[nH]c(-c3ccc(S(=O)(=O)O)cc3)nc2n(CCC)c1=O
Reply: 4.743

Ask: Field: Z score (murine neural precursor cells (neurosphere cultures)). Entry: OC[C@H]1O[C@@H](n2cnc3c(Nc4ccccc4)ncnc32)[C@H](O)[C@@H]1O
Reply: 0.728

Ask: Field: Z score (murine neural precursor cells (neurosphere cultures)). Entry: Br.COc1ccc(-c2ccc(=N)n(CCCC(=O)O)n2)cc1
Reply: −0.957

Ask: Field: Z score (murine neural precursor cells (neurosphere cultures)). Entry: N=C(N)SCCc1cnc[nH]1 [Imetit dihydrobromide]
Reply: −0.245

Further cases:
Ask: Field: Z score (murine neural precursor cells (neurosphere cultures)). Entry: O=C(O)c1cc2cc(F)ccc2[nH]1
Reply: −0.008

Ask: Field: Z score (murine neural precursor cells (neurosphere cultures)). Entry: NN=C(N)N.NN=C(N)N.O=S(=O)(O)O [Aminoguanidine hemisulfate]
Reply: −1.219

Ask: Field: Z score (murine neural precursor cells (neurosphere cultures)). Entry: Nc1ccc(CCN2CCN(c3cccc(C(F)(F)F)c3)CC2)cc1
Reply: −10.728

---

System: murine neural precursor cells (neurosphere cultures)
experiment-notes: HTS of LOPAC library against secondary neurosphere cultures, MTT proliferation assay at 3 μM, day 7 (z score, P value)
Format: cell-based, mouse
measurement-setup: 168 h, 3 µM
Counter-ions that a name gives are not always drawn.
The following compounds are listed with their measured Z Score values.
# answer = number (no unit)

Illustrative cases are given below, each with its answer.
Ask: Entry Cl.N=c1c[n+](N2CCOCC2)[n-]o1 [3-Morpholinosydnonimine hydrochloride] : reported Z Score = ?
Reply: −1.324

Ask: Entry Nn1nnc2ccccc21 : reported Z Score = ?
Reply: 0.5236

Ask: Entry COC(=O)C1=C(C)NC(C)=C(C(=O)OC)C1c1ccccc1[N+](=O)[O-] : reported Z Score = ?
Reply: −0.2937

Ask: Entry CNc1ncnc2c1ncn2[C@@H]1O[C@H](CO)[C@@H](O)[C@H]1O : reported Z Score = ?
Reply: 0.7424

Ask: Entry O=c1cc(O)cc(/C=C/c2ccc(O)c(O)c2)o1 : reported Z Score = ?
Reply: 0.8896

Ask: Entry O=C(O)C1=CC(=C(c2ccc(O)c(C(=O)O)c2)c2ccc(O)c(C(=O)O)c2)C=CC1=O : reported Z Score = ?
Reply: 0.5709

Further cases:
Ask: Entry CCCCCCN(CCCCCC)C(=O)Cc1c(-c2ccc(F)cc2)[nH]c2ccccc12 : reported Z Score = ?
Reply: 1.916

Ask: Entry CSc1ccc2c(c1)C(N1CCN(C)CC1)Cc1ccccc1S2 (centres unmarked) [Methiothepin (38), Methiothepin, reference compound] : reported Z Score = ?
Reply: 1.868

Ask: Entry COC(=O)[C@@H]1[C@H]2C[C@H]3c4[nH]c5ccccc5c4CCN3C[C@@H]2CC[C@@H]1O [Yohimbine hydrochloride] : reported Z Score = ?
Reply: −1.656

Ask: Entry CN(C)CCC=C1c2ccccc2CCc2ccccc21 [Amitriptyline hydrochloride] : reported Z Score = ?
Reply: 0.7066

Ask: Entry Br.Br.N=C(N)SCCN : reported Z Score = ?
Reply: −1.251

Ask: Entry N[C@@H](CCCC(=O)O)C(=O)O : reported Z Score = ?
Reply: −2.334

Ask: Entry CC(=O)C(C)=NO : reported Z Score = ?
Reply: −1.81

Ask: Entry O=C1CC2(CCCC2)CC(=O)N1CCCCN1CCN(c2ncccn2)CC1 [Buspirone hydrochloride] : reported Z Score = ?
Reply: −1.775

Ask: Entry O=[N+]([O-])c1ccc(CSc2ncnc3c2ncn3[C@@H]2O[C@H](CO)[C@@H](O)[C@H]2O)cc1 : reported Z Score = ?
Reply: −0.4271

Ask: Entry COc1ccccc1N1CCN(CCCNc2cc(=O)n(C)c(=O)n2C)CC1 [Urapidil hydrochloride] : reported Z Score = ?
Reply: 0.1572

Ask: Entry Cc1ccccc1/C=C/C1=NCCN1 [Metrazoline oxalate] : reported Z Score = ?
Reply: 0.1073

Ask: Entry O=[N+]([O-])c1cccc2c(Br)n[nH]c12 : reported Z Score = ?
Reply: −1.68

---

The following compounds are listed with their measured Z score values.
Tested on: murine neural precursor cells (neurosphere cultures)
experiment-notes: HTS of LOPAC library against secondary neurosphere cultures, MTT proliferation assay at 3 μM, day 7 (z score, P value)
Type: cell-based, mouse
measurement-setup: LOPAC primary screen, neurosphere MTT proliferation, 3 μM, day 7
Counter-ions that a name gives are not always drawn.
# answer = number (no unit)

Illustrative cases are given below, each with its answer.
Ask: Entry CN1C[C@H](O)[C@@H](O)[C@H](O)[C@H]1CO [N-Methyl-1-deoxynojirimycin] : reported Z score = ?
Reply: −1.335

Ask: Entry Cc1nc(-c2ccc(-c3ccc(C(=O)N4CCc5cc6c(cc54)C4(CCN(C)CC4)CO6)cc3)c(C)c2)no1.Cl [SB 224289 hydrochloride] : reported Z score = ?
Reply: −4.786

Ask: Entry CCc1cccc(N(C)C(N)=Nc2cccc3ccccc23)c1 [CNS-1102] : reported Z score = ?
Reply: −3.782

Ask: Entry CN(C)c1ccc(O)c2c1C[C@H]1C[C@H]3[C@H](N(C)C)C(O)=C(C(N)=O)C(=O)[C@@]3(O)C(O)=C1C2=O [Minocycline hydrochloride] : reported Z score = ?
Reply: 0.442

Ask: Entry COc1ccc2c(c1OC)C(=O)OC2C1c2cc3c(cc2CCN1C)OCO3 (single isomer, unassigned; (+)) [(+)-Hydrastine] : reported Z score = ?
Reply: −0.836

Further cases:
Ask: Entry Cc1ccc(OCC(O)C(C)NC(C)C)c2c1CCC2.Cl (stereo not shown) [ICI 118,551 hydrochloride] : reported Z score = ?
Reply: 1.101

Ask: Entry O=C(O)CC[N+](=O)[O-] [3-Nitropropionic acid] : reported Z score = ?
Reply: −0.563

---

System: murine neural precursor cells (neurosphere cultures)
experiment-notes: HTS of LOPAC library against secondary neurosphere cultures, MTT proliferation assay at 3 μM, day 7 (z score, P value)
Format: cell-based, mouse
measurement-setup: 168 h, 3 µM
Counter-ions that a name gives are not always drawn.
# if measured Z score < -0.8: satisfied  # else: not satisfied

Use these answered entries as a reference point.
Ask: Record O=S(=O)(O)C1CCNCC1 [Piperidine-4-sulphonic acid] : is its Z score strictly below -0.8?
Reply: not satisfied

Ask: Record CC(C)Cn1c(=O)n(C)c(=O)c2[nH]cnc21 [3-Isobutyl-1-methylxanthine] : is its Z score strictly below -0.8?
Reply: not satisfied

Ask: Record NCCC(=O)NCCc1c[nH]cn1 [Carcinine dihydrochloride] : is its Z score strictly below -0.8?
Reply: satisfied

Ask: Record Cn1c(=O)c2[nH]c(-c3ccc(S(=O)(=O)O)cc3)nc2n(C)c1=O [8-(p-Sulfophenyl)theophylline] : is its Z score strictly below -0.8?
Reply: not satisfied

Ask: Record Cc1cc(C)c(NC(=O)C[C@H](CC(=O)O)c2cccc3ccccc23)c(C(=O)N2CCC3(CCCC3)CC2)c1 [CR 2945] : is its Z score strictly below -0.8?
Reply: not satisfied

Ask: Record Cn1ccnc1 [1-Methylimidazole] : is its Z score strictly below -0.8?
Reply: satisfied

Further cases:
Ask: Record C[N+](C)(C)CCC(=O)c1cccc2ccccc12.[I-] : is its Z score strictly below -0.8?
Reply: satisfied

Ask: Record Nn1nnc2ccccc21 [1-Aminobenzotriazole] : is its Z score strictly below -0.8?
Reply: not satisfied

Ask: Record O=C(/C=C/c1ccc(O)cc1)c1ccc(O)cc1O [Isoliquiritigenin] : is its Z score strictly below -0.8?
Reply: satisfied

---

Tested on: murine neural precursor cells (neurosphere cultures)
experiment-notes: HTS of LOPAC library against secondary neurosphere cultures, MTT proliferation assay at 3 μM, day 7 (z score, P value)
Type: cell-based, mouse
measurement-setup: LOPAC library screen, 3 μM, MTT, neurosphere cultures
Counter-ions that a name gives are not always drawn.
The following compounds are listed with their measured Z Score values.
# answer = number (no unit)

Illustrative cases are given below, each with its answer.
Ask: Entry N=C(NCCC[C@H](N)C(=O)O)N[N+](=O)[O-] [NG-Nitro-L-arginine] : reported Z Score = ?
Reply: 0.1385

Ask: Entry CCn1cc(C(=O)O)c(=O)c2cc(F)c(N3CCNC(C)C3)c(F)c21 (stereo not drawn) [Lomefloxacin hydrochloride] : reported Z Score = ?
Reply: 0.1374

Ask: Entry COc1cc(C(=O)OCCCN2CCCN(CCCOC(=O)c3cc(OC)c(OC)c(OC)c3)CC2)cc(OC)c1OC [Dilazep hydrochloride] : reported Z Score = ?
Reply: 0.2448

Ask: Entry NC(CO)C(=O)NNCc1ccc(O)c(O)c1O (stereo not drawn) [Benserazide hydrochloride] : reported Z Score = ?
Reply: 0.007467

Ask: Entry CN(C)CCOC(c1ccccc1)c1ccccc1 [Diphenhydramine hydrochloride] : reported Z Score = ?
Reply: 0.8449

Further cases:
Ask: Entry CC(=O)Nc1nnc(S(N)(=O)=O)s1 [Acetazolamide] : reported Z Score = ?
Reply: 1.111

Ask: Entry O=c1[nH]c2ccccc2n1CCCN1CCN(C(c2ccccc2)c2ccccc2)CC1 [Oxatomide] : reported Z Score = ?
Reply: 0.5957

Ask: Entry CN(C)CCN(Cc1cccs1)c1ccccn1 [Methapyrilene hydrochloride] : reported Z Score = ?
Reply: 0.6276

Ask: Entry CN1[C@@H](CC(=O)c2ccccc2)CCC[C@H]1C[C@H](O)c1ccccc1 [alpha-Lobeline hydrochloride] : reported Z Score = ?
Reply: 0.5499

Ask: Entry C[N+]1(C)CCC(OC(=O)C(c2ccccc2)c2ccccc2)CC1.[I-] [4-DAMP methiodide] : reported Z Score = ?
Reply: 0.3311

Ask: Entry CNCCCN1c2ccccc2CCc2ccccc21 [Desipramine hydrochloride] : reported Z Score = ?
Reply: 0.1226

Ask: Entry CCCCCCCCCCCCCCC[C@H](O)[C@H](N)CO (racemic) [DL-erythro-Dihydrosphingosine] : reported Z Score = ?
Reply: −0.0785

Ask: Entry Br.NC1CCc2cc(O)c(O)cc2C1 (stereo not drawn) [6,7-ADTN hydrobromide] : reported Z Score = ?
Reply: 0.357

Ask: Entry O=C(O)c1nn(Cc2ccc(Cl)cc2Cl)c2ccccc12 [Lonidamine] : reported Z Score = ?
Reply: 0.4358

Ask: Entry O=C(O)/C=C\C(=O)O.O=[N+]([O-])c1ccc2nc(N3CCNCC3)ccc2c1 [Quipazine, 6-nitro-, maleate] : reported Z Score = ?
Reply: 0.9782

Ask: Entry CC(C)NCC(O)COc1cccc2ccccc12.Cl (stereo not drawn) [(B1)-Propranolol hydrochloride] : reported Z Score = ?
Reply: 0.3567

Ask: Entry Cc1[nH]c(=O)c(C#N)cc1-c1ccncc1 [Milrinone] : reported Z Score = ?
Reply: 0.05506

Ask: Entry O=C1NCN(c2ccccc2)C12CCN(CC1COc3ccccc3O1)CC2 (stereo not drawn) [Spiroxatrine] : reported Z Score = ?
Reply: 0.1219

Ask: Entry CN(C(=O)CCCOc1ccc2[nH]c(=O)ccc2c1)C1CCCCC1 [Cilostamide] : reported Z Score = ?
Reply: 0.1756

Ask: Entry C[N+](C)(C)CCOC(N)=O [Carbachol] : reported Z Score = ?
Reply: −0.03381

Ask: Entry NC(=O)NO [Hydroxyurea] : reported Z Score = ?
Reply: 1.131

Ask: Entry COc1ccc(CN(CCN(C)C)c2ccccn2)cc1 [Pyrilamine maleate] : reported Z Score = ?
Reply: 0.9893

Ask: Entry COc1cc2nc(N3CCN(C(=O)C4CCCO4)CC3)nc(N)c2cc1OC (stereo not drawn) [Terazosin hydrochloride] : reported Z Score = ?
Reply: −0.05722

Ask: Entry CCN(CC)CCOC(=O)c1ccc(N)cc1 [Procaine hydrochloride] : reported Z Score = ?
Reply: 0.5501

Ask: Entry Cc1ccc(S(=O)(=O)NC(=O)NN2CCCCCC2)cc1 [Tolazamide] : reported Z Score = ?
Reply: 1.431

Ask: Entry Cc1c(OCC(F)(F)F)ccnc1C[S+]([O-])c1nc2ccccc2[nH]1 (stereo not drawn) [Lansoprazole] : reported Z Score = ?
Reply: −0.0336

Ask: Entry CCCCNc1ccc(C(=O)OCCN(C)C)cc1 [Tetracaine hydrochloride] : reported Z Score = ?
Reply: −0.01953

Data provenance is patent US8058243B2.
